- targetEntity: Human immunodeficiency virus type 1 integrase (Human immunodeficiency virus 1, UniProt Q7ZJM1)
- Sequence (Q7ZJM1 whole entry): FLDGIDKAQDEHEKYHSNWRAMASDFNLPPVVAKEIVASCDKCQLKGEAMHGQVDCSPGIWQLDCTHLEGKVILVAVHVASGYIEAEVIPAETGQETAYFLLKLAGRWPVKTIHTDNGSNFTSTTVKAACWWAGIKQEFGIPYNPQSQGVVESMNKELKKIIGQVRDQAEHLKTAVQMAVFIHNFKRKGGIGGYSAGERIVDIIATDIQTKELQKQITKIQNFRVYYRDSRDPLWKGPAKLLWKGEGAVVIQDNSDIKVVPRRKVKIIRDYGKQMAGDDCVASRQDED
- assayText: Inhibition of HIV1 integrase 3'-end processing activity in presence of Mg2+
Would you mind telling me the reported IC50 of each entry?

Ask: Supply IC50 value. Item: COc1ccc(OC)c(C(=O)C2=C(O)C(=O)N(CCCCCC(=O)O)C2c2ccc(Cl)cc2)c1 (configuration not stated)
Reply: > 100 µM

Ask: Supply IC50 value. Item: Cc1ccc(C(=O)C2=C(O)C(=O)N(c3ncc(S(=O)(=O)c4ccc([N+](=O)[O-])cc4)s3)C2c2cccc(Cl)c2)cc1 (configuration not stated)
Reply: > 100 µM
